# Tested on: Phospho-Rb Ser807/811 in OVCAR3 cells
# assay_procedure: OVCAR3 Phospho-Rb Ser807/811 HTRF assay
# Format: cell-based
# condition_label: Homo sapiens, OVCAR-3, 1 h, OVCAR3 cells, Phospho-Rb Ser807/811 HTRF, 1 hour incubation; read-out: pRb-OVCAR3 IC50
pIC50: −log10 of the molar value.
readout_kind: pIC50

Consider the following illustrative entries.
[
  {
    "molecule": "COc1cc(O)c(C=O)c(OCC(=O)Nc2cc([C@H]3CC[C@@H](OC(=O)N4C5CC4CN(C)C5)C3)[nH]n2)c1 [Compound 190]",
    "pIC50": 7.46
  },
  {
    "molecule": "COc1cc(O)c(C=O)c(OCC(=O)Nc2cc([C@H]3CC[C@@H](OC(=O)NC4CN(C)C4)C3)[nH]n2)c1 [Compound 185]",
    "pIC50": 6.44
  },
  {
    "molecule": "O=Cc1c(O)cccc1OCC(=O)Nc1cc([C@H]2CC[C@@H](OC(=O)N3C4COCC3C4)C2)[nH]n1 [Compound 196]",
    "pIC50": 6.99
  },
  {
    "molecule": "COc1cc(O)c(C=O)c(OCC(=O)Nc2cc([C@H]3CC[C@@H](OC(=O)N4C5CCC4CC5)C3)[nH]n2)c1 [Compound 229]",
    "pIC50": 7.54
  }
]

I. COc1cc(O)c(C=O)c(OCC(=O)Nc2cc([C@H]3CC[C@@H](OC(=O)NCCOC(F)F)C3)n[nH]2)c1 [Compound 116]
II. CC(C)NC(=O)O[C@@H]1CC[C@H](c2cc(NC(=O)COc3cccc(Cl)c3C=O)n[nH]2)C1 [Compound 97]
III. COc1cc(O)c(C=O)c(OCC(=O)Nc2cc([C@H]3CC[C@@H](OC(=O)NCc4cnn(C)c4)C3)[nH]n2)c1 [Compound 137]
Highest pIC50 first, then in falling order down to the smallest. Write the labels out in the order the request specifies.
I, III, II

###

# tested_target: CDK1-NanoLuc fusion with CCNB1 in 293T or 293 cells (Homo sapiens, UniProt P06493)
# Construct: host or cells: 293T (ATCC CRL-3216) or 293 (ATCC CRL-1573)
# Sequence (P06493 whole entry, the tested form may be a part): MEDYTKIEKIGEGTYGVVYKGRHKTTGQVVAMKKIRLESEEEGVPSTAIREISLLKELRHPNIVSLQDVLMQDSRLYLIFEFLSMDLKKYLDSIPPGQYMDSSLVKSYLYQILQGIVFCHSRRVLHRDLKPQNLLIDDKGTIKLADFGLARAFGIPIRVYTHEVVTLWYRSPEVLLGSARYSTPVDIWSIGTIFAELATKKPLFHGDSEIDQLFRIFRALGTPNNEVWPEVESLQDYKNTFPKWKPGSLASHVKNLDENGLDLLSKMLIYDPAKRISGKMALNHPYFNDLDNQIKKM
# Sequence (P14635 whole entry partner, the tested form may be a part): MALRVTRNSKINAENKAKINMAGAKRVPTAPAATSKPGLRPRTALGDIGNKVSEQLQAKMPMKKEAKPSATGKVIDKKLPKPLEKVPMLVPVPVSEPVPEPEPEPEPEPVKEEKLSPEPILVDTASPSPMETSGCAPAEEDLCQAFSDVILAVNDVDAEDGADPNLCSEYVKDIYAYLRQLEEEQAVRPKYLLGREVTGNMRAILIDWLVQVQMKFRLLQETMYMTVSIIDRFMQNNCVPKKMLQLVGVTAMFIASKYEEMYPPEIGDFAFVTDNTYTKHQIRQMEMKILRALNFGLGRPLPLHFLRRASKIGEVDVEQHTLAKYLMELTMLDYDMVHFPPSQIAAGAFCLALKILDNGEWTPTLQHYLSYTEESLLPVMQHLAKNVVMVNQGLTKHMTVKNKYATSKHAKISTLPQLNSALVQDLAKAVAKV
# assay_procedure: NanoBRET Target Engagement (TE) Intracellular Kinase Assay, CDK1/CCNB1
# Format: cell-based
# condition_label: NanoBRET TE intracellular kinase assay, 2-hour incubation, read-out: NanoBRET-CDK1/B1 IC50
readout_kind: IC50 (nM)

[
  {
    "molecule": "COc1cc(O)c(C=O)c(OCC(=O)Nc2cc([C@H]3CC[C@@H](OC(=O)N4CCOC[C@H]4C)C3)[nH]n2)c1 [Compound 206]",
    "readout_kind": "IC50",
    "reported_measurement": 5.62
  }
]

I. CC1(NC(=O)O[C@@H]2CC[C@H](c3cc(NC(=O)CCc4cccc(O)c4C=O)n[nH]3)C2)CC1 [Compound 23, trifluoroacetic acid]
II. COCC1(NC(=O)O[C@@H]2CC[C@H](c3cc(NC(=O)COc4cc(OC)cc(O)c4C=O)n[nH]3)C2)CC1 [Compound 209]
III. COc1cc(O)c(C=O)c(OCC(=O)Nc2cc([C@H]3CC[C@@H](OC(=O)NC4(C)CCC4)C3)[nH]n2)c1 [Compound 254]
Arrange these 3 molecules in increasing order of IC50. Write the labels out in the order the request specifies.
III, II, I

###

# tested_target: CDK2-NanoLuc fusion with CCNE1 in 293T or 293 cells (Homo sapiens, UniProt P24941)
# Construct: host or cells: 293T (ATCC CRL-3216) or 293 (ATCC CRL-1573)
# assay_procedure: NanoBRET Target Engagement (TE) Intracellular Kinase Assay, CDK2/CCNE1
# Format: cell-based
# condition_label: NanoBRET TE intracellular kinase assay, 2-hour incubation, read-out: NanoBRET-CDK2/E1 IC50
readout_kind: IC50 (nM)

[
  {
    "compound": "COc1cc(O)c(C=O)c(OCC(=O)Nc2cc([C@H]3CC[C@@H](OC(=O)N[C@@H]4C[C@@H]4F)C3)[nH]n2)c1 [Compound 133]",
    "IC50 (nM)": 4.42
  }
]

I. CC(C)NC(=O)O[C@@H]1CC[C@H](c2cc(NC(=O)c3cc(C=O)c4[nH]ncc4c3)n[nH]2)C1 [Compound 40]
II. Cc1ccc(OCC(=O)Nc2cc([C@H]3CC[C@@H](OC(=O)NC(C)C)C3)[nH]n2)c(C=O)c1O [Compound 56]
Could you please tell me which of these two has the higher IC50: I or II ? // respond with label for picked entry
I

###

# System: Phospho-Rb Ser807/811 in OVCAR3 cells
# assay_procedure: OVCAR3 Phospho-Rb Ser807/811 HTRF assay
# Format: cell-based
# condition_label: Homo sapiens, OVCAR-3, 1 h, OVCAR3 cells, Phospho-Rb Ser807/811 HTRF, 1 hour incubation; read-out: pRb-OVCAR3 IC50
pIC50: −log10 of the molar value.
readout_kind: pIC50

Consider the following illustrative entries.
[
  {
    "compound": "CC(C)NC(=O)O[C@@H]1CC[C@H](c2cc(NC(=O)c3cc(-c4c(F)ccc(O)c4C=O)nn3C)n[nH]2)C1 [Compound 45]",
    "tested_target": "Phospho-Rb Ser807/811 in OVCAR3 cells",
    "pIC50": 6.94
  },
  {
    "compound": "CC(C)NC(=O)O[C@@H]1CC[C@H](c2cc(NC(=O)CCOc3cccc(O)c3C=O)n[nH]2)C1 [Compound 34]",
    "tested_target": "Phospho-Rb Ser807/811 in OVCAR3 cells",
    "pIC50": 6.26
  },
  {
    "compound": "O=Cc1c(O)cc(F)cc1OCC(=O)Nc1cc([C@H]2CC[C@@H](OC(=O)N3C4COCC3C4)C2)[nH]n1 [Compound 192]",
    "tested_target": "Phospho-Rb Ser807/811 in OVCAR3 cells",
    "pIC50": 7.06
  },
  {
    "compound": "Cc1sc(-c2cccc(O)c2C=O)nc1C(=O)Nc1cc([C@H]2CC[C@@H](OC(=O)NC(C)C)C2)[nH]n1 [Compound 65]",
    "tested_target": "Phospho-Rb Ser807/811 in OVCAR3 cells",
    "pIC50": 6.50
  }
]

a. COc1cc(O)c(C=O)c(OCC(=O)Nc2cc([C@H]3CC[C@@H](OC(=O)N(OC)C(C)C)C3)[nH]n2)c1 [Compound 171]
b. COc1cc(O)c(C=O)c(OCC(=O)Nc2cc([C@H]3CC[C@@H](OC(=O)NC(C)C)C3)[nH]n2)c1 [Compound 64]
Could you please tell me which of these two has the higher pIC50: a or b ? // respond with label for picked entry
b
(b: 7.48, a: 6.97)

###

# System: Phospho-Rb Ser807/811 in OVCAR3 cells
# assay_procedure: OVCAR3 Phospho-Rb Ser807/811 HTRF assay
# Assay type: cell-based
# condition_label: Homo sapiens, OVCAR-3, 1 h, OVCAR3 cells, Phospho-Rb Ser807/811 HTRF, 1 hour incubation; read-out: pRb-OVCAR3 IC50
readout_kind: IC50 (µM)

[
  {
    "molecule": "COc1cc(O)c(C=O)c(OCC(=O)Nc2cc([C@H]3CC[C@@H](OC(=O)N4CC5CC(C4)N5C)C3)[nH]n2)c1 [Compound 189]",
    "tested_target": "Phospho-Rb Ser807/811 in OVCAR3 cells",
    "IC50 [µM]": 0.198
  },
  {
    "molecule": "COc1cc(O)c(C=O)c(OCC(=O)Nc2cc([C@H]3CC[C@@H](OC(=O)N(O)C(C)C)C3)[nH]n2)c1 [Compound 173]",
    "tested_target": "Phospho-Rb Ser807/811 in OVCAR3 cells",
    "IC50 [µM]": 0.0342
  }
]

P. COc1cc(O)c(C=O)c(OCC(=O)Nc2cc([C@H]3CC[C@@H](OC(=O)Nc4ccncc4)C3)[nH]n2)c1 [Compound 165]
Q. COc1cc(O)c(C=O)c(OCC(=O)Nc2cc([C@H]3CC[C@@H](OC(=O)NC(C)(C)C#N)C3)[nH]n2)c1 [Compound 159]
R. COc1cc(O)c(C=O)c2c1CC(C(=O)Nc1cc([C@H]3CC[C@@H](OC(=O)NC(C)(C)C)C3)[nH]n1)C2 (single isomer, unassigned) [Compound 283]
S. O=Cc1c(O)cccc1OCC(=O)Nc1cc([C@H]2CC[C@@H](OC(=O)NC3CCCC3)C2)[nH]n1 [Compound 88]
Highest IC50 first, then in falling order down to the smallest. Write the labels out in the order the request specifies.
P, S, Q, R

Ref: patent US20250289789A1
